Assignment: determine reported pIC50 for the given molecules.
Target: Human NPY5 receptor (Homo sapiens)
Sequence (Q15761 whole entry): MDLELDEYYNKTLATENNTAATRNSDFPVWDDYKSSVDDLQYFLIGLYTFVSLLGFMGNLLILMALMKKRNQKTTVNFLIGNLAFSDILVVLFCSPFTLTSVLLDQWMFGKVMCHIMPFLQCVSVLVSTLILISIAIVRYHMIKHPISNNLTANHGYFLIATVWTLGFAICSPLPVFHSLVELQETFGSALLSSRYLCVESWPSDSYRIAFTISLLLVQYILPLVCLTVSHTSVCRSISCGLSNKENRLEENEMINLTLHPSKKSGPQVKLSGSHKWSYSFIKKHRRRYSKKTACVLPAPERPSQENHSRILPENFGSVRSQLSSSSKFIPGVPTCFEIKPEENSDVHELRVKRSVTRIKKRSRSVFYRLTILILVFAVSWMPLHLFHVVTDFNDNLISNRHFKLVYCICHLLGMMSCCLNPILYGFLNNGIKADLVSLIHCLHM
Assay: Human NPY5 receptor binding assay ([125I]PYY, membrane protein)
Details: [125I]PYY, read-out: hNPY5 IC50
Where a name gives a salt, the structure may show the parent alone.
Numbers only, as −log10 of the molar value.

INSERT INTO results (molecule, assay_result) VALUES
  ('O=C(CN1CCC(n2c(=O)[nH]c3ccccc32)CC1)Nc1ccc(-c2ccc(F)cc2)cc1 [Compound 259]', 6.82),
  ('O=C(CNC(c1ccccc1)c1ccccc1)Nc1ccc(C2CCCCC2)cc1 [Compound 273]', 5.15),
  ('COC(=O)c1ccc(NC(=O)CN2CCC(n3c(=O)[nH]c4ccccc43)CC2)cc1 [Compound 360, reference compound]', 7.26),
  ('NC(=O)c1ccc(NC(=O)CN2CCC(n3c(=O)[nH]c4ccccc43)CC2)cc1 [Compound 350, reference compound]', 5.64),
  ('Cc1ccc(NC(=O)CN2CCC(n3c(=O)[nH]c4ccccc43)CC2)cc1 [Compound 359, reference compound]', 5.89),
  ('O=C(CN1CCC(NC(=O)Nc2ccccc2)CC1)Nc1ccc(C2CCCCC2)cc1 [Compound 274]', 5.32),
  ('O=C(CN1CCC(O)(Cc2ccccc2)CC1)Nc1ccc(C2CCCCC2)cc1 [Compound 314, hydrochloride]', 6.89),
  ('CC(=O)c1ccc(NC(=O)CN2CCC(n3c(=O)[nH]c4ccccc43)CC2)cc1 [Compound 354, reference compound]', 6.84);

Batch of 6 molecules: report pIC50 for each.
1. O=C(CN1CCC(n2c(=O)[nH]c3ccccc32)CC1)Nc1ccc(N=Nc2ccccc2)cc1 [Compound 349, reference compound]
2. O=C(CN1CCC(n2c(=O)[nH]c3ccccc32)CC1)Nc1ccc(Cc2ccccc2)cc1 [Compound 258]
3. O=C(CN1CCC(n2c(=O)[nH]c3ccccc32)CC1)Nc1ccc(Oc2ccccc2)cc1 [Compound 352, reference compound]
4. O=C(CN1CCC(n2c(=O)[nH]c3ccccc32)CC1)Nc1ccc(C2CCCCC2)cc1 [Compound 251]
5. CC(C(=O)Nc1ccc(C(C)(C)C)cc1)N1CCC(n2c(=O)[nH]c3ccccc32)CC1 (stereo not drawn) [Compound 279]
6. O=C(CN1CCC(n2c(=O)[nH]c3ccccc32)CC1)Nc1ccc([N+](=O)[O-])c(Cl)c1 [Compound 357, reference compound]

output:
1. 6.86
2. 7.00
3. 7.28
4. 8.40
5. 6.89
6. 6.62

Reference source for all entries: patent US6410792B1
